test system: Strep. pneumoniae L44 UC41; test: MIC, microbroth dilution; type: cell-based; settings: inocula 10^4 to 10^5 CFU/ml, 18-24 h, 37° C.
measured quantity: MIC (microgram/ml)

[I] CNC(=O)CC1NC(=O)c2nc(sc2COC)C(C(C)C)NC(=O)c2csc(n2)-c2ccc(-c3nc(C(=O)NCCCC(=O)O)cs3)nc2-c2csc(n2)-c2csc(n2)C(C(O)c2ccccc2)NC(=O)CNC(=O)c2nc1sc2C (centres unmarked)
[II] CNC(=O)CC1NC(=O)c2nc(sc2COC)C(C(C)C)NC(=O)c2csc(n2)-c2ccc(-c3nc(C(=O)NCC(=O)O)cs3)nc2-c2csc(n2)-c2csc(n2)C(C(O)c2ccccc2)NC(=O)CNC(=O)c2nc1sc2C (centres unmarked)
[III] CNC(=O)CC1NC(=O)c2nc(sc2COC)C(C(C)C)NC(=O)c2csc(n2)-c2ccc(-c3nc(C(=O)NC(CCSC)C(=O)O)cs3)nc2-c2csc(n2)-c2csc(n2)C(C(O)c2ccccc2)NC(=O)CNC(=O)c2nc1sc2C (centres unmarked)
List from greatest to least MIC. Reply with the labels, ordered as the question asks.
II, III, I
(II: 8 microgram/ml, III: 4 microgram/ml, I: 1 microgram/ml)

[P] CNC(=O)CC1NC(=O)c2nc(sc2COC)C(C(C)C)NC(=O)c2csc(n2)-c2ccc(-c3nc(C(=O)NC(Cc4ccccc4)C(=O)O)cs3)nc2-c2csc(n2)-c2csc(n2)C(C(O)c2ccccc2)NC(=O)CNC(=O)c2nc1sc2C (centres unmarked)
[Q] CNC(=O)CC1NC(=O)c2nc(sc2COC)C(C(C)C)NC(=O)c2csc(n2)-c2ccc(-c3nc(C(=O)NCCCCCC(=O)O)cs3)nc2-c2csc(n2)-c2csc(n2)C(C(O)c2ccccc2)NC(=O)CNC(=O)c2nc1sc2C (centres unmarked)
Given the two records P and Q , choose the one whose MIC value is lower. # respond with the chosen item's label
Q
(Q: 0.25 microgram/ml, P: 4 microgram/ml)

[I] CNC(=O)CC1NC(=O)c2nc(sc2COC)C(C(C)C)NC(=O)c2csc(n2)-c2ccc(-c3nc(C(=O)NCCCC=CC(=O)O)cs3)nc2-c2csc(n2)-c2csc(n2)C(C(O)c2ccccc2)NC(=O)CNC(=O)c2nc1sc2C (centres unmarked)
[II] CNC(=O)CC1NC(=O)c2nc(sc2COC)C(C(C)C)NC(=O)c2csc(n2)-c2ccc(-c3nc(C(=O)NCCCCCCCC(=O)O)cs3)nc2-c2csc(n2)-c2csc(n2)C(C(O)c2ccccc2)NC(=O)CNC(=O)c2nc1sc2C (centres unmarked)
Hi team, can someone confirm which has the larger MIC: I or II ? Thanks. # respond with the chosen item's label
II
(II: 2 microgram/ml, I: 1 microgram/ml)
